molecular target: Human autotaxin enzyme (Homo sapiens); construct: purchased R&D System; assay: Evaluation of autotaxin inhibitor, Method B (Test Example 2): TG-mTMP fluorescence; type: biochemical; conditions: Assay Method B (Test Example 2), human autotaxin; read-out: Inhibitory Activity (autotaxin enzyme inhibitory activity, IC50 class)
Assay Endpoint: IC50

Record excerpt, results attached:
INSERT INTO measurements (compound, reading) VALUES
  ('CCC(CC)Cn1c(C)cc(=O)n2cc(-c3ccc(Cl)cc3)nc12', '10 to 100 nM'),
  ('CCCCCn1c(C)cc(=O)n2cc(-c3ccc(C#N)cc3)nc12', '< 10 nM'),
  ('CCCCCn1c(NCCNC(C)=O)cc(=O)n2cc(-c3ccc(Cl)cc3)nc12', '10 to 100 nM');

Items follow; give IC50 for each.
1. CCCCCn1c(CO)cc(=O)n2cc(-c3ccc(Cl)cc3)nc12
2. CCCCCn1c(N2CC(O)C2)cc(=O)n2cc(-c3ccc(Cl)cc3)nc12
3. Cc1cc(=O)n2cc(-c3ccc(Cl)cc3)nc2n1Cc1cccc(C(F)(F)F)c1
4. CCCCCn1c(N2CCCC2CCC2CCCCC2)cc(=O)n2cc(-c3ccc(Cl)cc3)nc12 (stereo not drawn)
5. CCCCCn1c(N2CCCC2C(C)CCC)cc(=O)n2cc(-c3ccc(Cl)cc3)nc12 (stereo not drawn)

Result:
< 10 nM
< 10 nM
10 to 100 nM
10 to 100 nM
10 to 100 nM

Items follow; give IC50 for each.
1. CCCCCn1c(NC)cc(=O)n2cc(-c3ccc(Cl)cc3)nc12
2. CCCCCn1c(NCc2ccc(C(=O)OC)cc2)c(C)c(=O)n2cc(-c3ccc(Cl)cc3)nc12
3. CCCCCn1c(NCCN2CCN(C)CC2)cc(=O)n2cc(-c3ccc(Cl)cc3)nc12
4. CCCCCn1c(C)c(CC(=O)NCC)c(=O)n2cc(-c3ccc(Cl)cc3)nc12
5. CCCCCn1c(N2CCCCC2)cc(=O)n2cc(-c3ccc(Cl)cc3)nc12

Result:
10 to 100 nM
< 10 nM
< 10 nM
< 10 nM
10 to 100 nM

Items follow; give IC50 for each.
1. Cc1cc(=O)n2cc(-c3ccc(Cl)cc3)nc2n1CC1CCCO1 (stereo not drawn)
2. CCCCCn1c(Oc2ccccn2)cc(=O)n2cc(-c3ccc(Cl)cc3)nc12
3. CCCCCn1c(NCCO)cc(=O)n2cc(-c3ccc(Cl)cc3)nc12
4. CCCCCn1c(-c2cc[nH]n2)cc(=O)n2cc(-c3ccc(Cl)cc3)nc12

Result:
100 to 1000 nM
100 to 1000 nM
10 to 100 nM
10 to 100 nM

Problem: Quickly give me recorded IC50 for `CCCCCn1c(C)cc(=O)n2cc(-c3coc4ccccc34)nc12`
Result: 100 to 1000 nM
